# System: LXRa homodimer (NR concentration 270 nM)
# test-description: PBM binding z-score (relative to random genomic background probes); higher = stronger binding; sequences stand for … in GC…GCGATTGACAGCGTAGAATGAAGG
Could you please report measured PBM binding z-score for the items listed next?
Give bare numbers.

Examples with answers:
CAAACTAGCTCACCGGAAGGTCAAAGTCCGCATG | 3.46
ATCGAAAGGTCGAGGTGAGCATAGAGAAAGGGAA | -0.0507
CCTAGTTGGTCAAGGTCATACACGCTATAGGTAC | 2.86
CGTGAAAGTTCAACTAAGGTAACGTAAAGCACGC | 4.26
ATCTCTAGGTAACCAAGTTCAGTGATTGCCGAAC | 0.794
GCTAGCAGGCCATTGGGGTCACTCAATGACGGGC | -0.298
CCTACTGTGCCAAAAAGGTCATTGATGCCGATAA | 4.4
ACAGACAGGTGAGTCAAGGTAACTCAGCTGGACG | -0.155

# batch size: 6; output PBM binding z-score per entry
1. TAGCCTAGGTCATGGGCCAGGATACCACGCGAAC
2. CCTGCTAGGTCAATGGTCAGCTATAGCAGCTCGC
3. AGTCAAAGTTCACTAGGTAAGGTAAGATTCAGCT
4. TAGCCTAGGTCAGATAGGGCCAGTATACGCTATA
5. AGAACGAGGGCACGCTGAGTTGATACCAGAGTAG
6. CCTTCTGGGCCAAAAAGGTCATTGATGCCGATAA

1. 0.422
2. 0.0531
3. 3.2
4. -0.0979
5. -0.278
6. 2.97
